Consider the following compounds and their measured pIC50 readings.
assayedTarget: Phosphatidylinositol 4,5-bisphosphate 3-kinase catalytic subunit delta isoform (Homo sapiens, UniProt O00329)
Sequence (O00329 whole entry): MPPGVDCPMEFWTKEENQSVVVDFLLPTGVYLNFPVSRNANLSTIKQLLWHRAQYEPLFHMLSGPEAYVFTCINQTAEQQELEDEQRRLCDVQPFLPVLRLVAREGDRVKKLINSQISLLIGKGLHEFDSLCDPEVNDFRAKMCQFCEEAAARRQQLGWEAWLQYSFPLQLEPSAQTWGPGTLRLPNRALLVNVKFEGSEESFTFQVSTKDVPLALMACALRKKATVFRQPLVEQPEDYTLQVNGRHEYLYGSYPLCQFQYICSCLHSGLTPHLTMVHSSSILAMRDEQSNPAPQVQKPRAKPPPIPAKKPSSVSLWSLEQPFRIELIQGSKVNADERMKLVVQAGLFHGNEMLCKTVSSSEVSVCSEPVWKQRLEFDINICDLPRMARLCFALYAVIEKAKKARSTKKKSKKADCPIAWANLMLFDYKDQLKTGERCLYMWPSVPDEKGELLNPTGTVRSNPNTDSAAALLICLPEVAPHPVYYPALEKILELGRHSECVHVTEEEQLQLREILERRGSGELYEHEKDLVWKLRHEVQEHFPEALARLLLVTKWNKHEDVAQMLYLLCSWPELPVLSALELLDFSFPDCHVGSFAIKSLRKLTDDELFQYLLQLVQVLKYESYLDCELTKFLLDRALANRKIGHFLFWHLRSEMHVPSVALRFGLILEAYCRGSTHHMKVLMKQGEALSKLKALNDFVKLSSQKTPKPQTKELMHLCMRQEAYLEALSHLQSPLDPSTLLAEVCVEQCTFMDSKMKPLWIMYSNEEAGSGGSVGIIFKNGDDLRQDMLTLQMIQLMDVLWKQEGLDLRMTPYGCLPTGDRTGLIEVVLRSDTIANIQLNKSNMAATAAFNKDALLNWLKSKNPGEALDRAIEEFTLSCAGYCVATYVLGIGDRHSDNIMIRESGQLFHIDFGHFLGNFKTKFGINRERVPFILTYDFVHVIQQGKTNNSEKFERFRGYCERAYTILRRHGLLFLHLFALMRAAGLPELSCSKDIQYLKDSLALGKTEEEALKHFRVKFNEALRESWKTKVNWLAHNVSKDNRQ
Schema: pIC50 number; meaning minus log10 of the concentration expressed in molar units.

Answered examples (3):
What measured pIC50 goes with NCc1ccc(-c2cc(-c3ccnn3C3CCCCC3)c3c(N)ncnn23)cc1 ? 7.59

What measured pIC50 goes with Nc1ncnn2c(-c3cccnc3)cc(-c3ccnn3C3CCCCC3)c12 ? 7.66

What measured pIC50 goes with Nc1ncnn2c(-c3cccc(S(N)(=O)=O)c3)cc(-c3ccnn3C3CCCCC3)c12 ? 7.85

More entries:
What measured pIC50 goes with Nc1ncnn2ccc(-c3ccnn3C3CCCCC3)c12 ? 6.39

What measured pIC50 goes with Nc1ncnn2c(-c3ccc(CO)cc3)cc(-c3ccnn3C3CCCCC3)c12 ? 7.51

What measured pIC50 goes with Nc1ncnn2c(-c3cccnc3)cc(-c3ccnn3C3CCS(=O)(=O)CC3)c12 ? 6.79
